Values from patent US20250024871A1

target: T1R umami taste receptor (Homo sapiens, UniProt Q7RTX0+Q7RTX1); experiment: in vitro cell-based assay having cells that express the T1R umami taste receptor (enhancement of MSG); settings: cells expressing T1R umami taste receptor; read-out: EC50 for enhancement of MSG binding
Sequence (Q7RTX1 21-841): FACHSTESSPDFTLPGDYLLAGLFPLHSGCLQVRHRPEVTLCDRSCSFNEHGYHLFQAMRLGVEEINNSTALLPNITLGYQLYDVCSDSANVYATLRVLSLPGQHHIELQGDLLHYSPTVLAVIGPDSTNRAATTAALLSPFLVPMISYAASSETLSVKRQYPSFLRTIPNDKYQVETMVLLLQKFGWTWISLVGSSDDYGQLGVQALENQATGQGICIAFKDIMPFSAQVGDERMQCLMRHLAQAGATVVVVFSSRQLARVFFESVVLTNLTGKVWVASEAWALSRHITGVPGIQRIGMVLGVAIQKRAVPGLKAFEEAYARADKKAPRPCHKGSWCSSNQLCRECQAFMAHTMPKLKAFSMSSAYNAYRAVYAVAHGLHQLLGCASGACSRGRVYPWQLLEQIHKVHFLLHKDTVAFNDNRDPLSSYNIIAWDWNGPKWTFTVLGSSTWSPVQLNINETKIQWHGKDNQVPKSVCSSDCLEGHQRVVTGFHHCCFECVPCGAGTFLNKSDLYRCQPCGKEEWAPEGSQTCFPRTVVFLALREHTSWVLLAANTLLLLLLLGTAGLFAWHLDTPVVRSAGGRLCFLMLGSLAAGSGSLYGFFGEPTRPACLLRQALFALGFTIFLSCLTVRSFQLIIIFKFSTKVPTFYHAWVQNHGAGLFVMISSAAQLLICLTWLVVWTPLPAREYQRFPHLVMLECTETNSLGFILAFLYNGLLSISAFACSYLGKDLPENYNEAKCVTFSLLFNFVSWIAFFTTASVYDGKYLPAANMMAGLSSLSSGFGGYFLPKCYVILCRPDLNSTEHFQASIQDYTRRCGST
Sequence (Q7RTX0 21-852): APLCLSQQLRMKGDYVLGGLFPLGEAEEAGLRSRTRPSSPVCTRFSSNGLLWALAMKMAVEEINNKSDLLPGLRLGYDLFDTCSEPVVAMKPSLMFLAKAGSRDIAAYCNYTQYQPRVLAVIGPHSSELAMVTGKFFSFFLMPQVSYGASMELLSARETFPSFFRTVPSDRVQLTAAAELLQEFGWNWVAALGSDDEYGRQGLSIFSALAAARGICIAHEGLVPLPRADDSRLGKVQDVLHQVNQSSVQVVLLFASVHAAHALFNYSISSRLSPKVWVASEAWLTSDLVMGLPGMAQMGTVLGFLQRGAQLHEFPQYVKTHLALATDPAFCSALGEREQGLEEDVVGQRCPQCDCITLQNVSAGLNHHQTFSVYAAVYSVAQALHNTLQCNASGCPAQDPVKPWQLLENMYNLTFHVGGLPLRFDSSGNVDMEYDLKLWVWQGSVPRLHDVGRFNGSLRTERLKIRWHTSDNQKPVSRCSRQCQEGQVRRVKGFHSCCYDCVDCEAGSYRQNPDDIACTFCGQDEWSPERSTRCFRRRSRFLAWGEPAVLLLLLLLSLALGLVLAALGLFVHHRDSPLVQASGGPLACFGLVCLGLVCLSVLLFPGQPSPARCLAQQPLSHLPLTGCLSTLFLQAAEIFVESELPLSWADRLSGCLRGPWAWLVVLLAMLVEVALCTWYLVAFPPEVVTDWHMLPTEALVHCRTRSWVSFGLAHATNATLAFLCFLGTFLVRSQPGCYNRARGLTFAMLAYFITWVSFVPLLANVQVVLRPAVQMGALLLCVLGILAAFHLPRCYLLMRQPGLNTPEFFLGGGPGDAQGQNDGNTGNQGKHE
For each of the compounds below, state its EC50.

Previously resolved entries follow.
{"compound": "COC(=O)[C@H](Cc1ccccc1)NC(=O)/C=C/c1ccc(OC)cc1", "EC50": "1 µM"}
{"compound": "CCOC(=O)[C@@H](NC(=O)/C=C/c1ccc2c(c1)OCO2)[C@@H](C)CC", "EC50": "> 50 µM"}
{"compound": "C/C=C/C=C/C(=O)N[C@@H](CCC(=O)OCC)C(=O)OCC", "EC50": "> 50 µM"}

I would be grateful if you could provide EC50 for each of the following entries.
1. CCOC(=O)[C@@H](NC(=O)c1ccc(OC)cc1)C(C)C [Compound 106, Ethyl (4-methoxybenzoyl)-L-valinate]
2. COC(=O)[C@H](C)NC(=O)/C=C/c1ccc(OC)cc1
3. C/C=C/C=C/C(=O)N[C@H](C(=O)OCC)[C@@H](C)CC
4. CCC/C=C/C(=O)N[C@@H](Cc1ccccc1)C(=O)OCC [Compound 177, Ethyl (E)-hex-2-enoyl-L-phenylalaninate]
5. CCC/C=C/C(=O)N[C@H](C(=O)OCC)C(C)C [Compound 175, Ethyl (E)-hex-2-enoyl-L-valinate]

A)
1. 36 µM
2. > 50 µM
3. > 50 µM
4. ~40 µM
5. > 50 µM

###

molecular target: T1R umami taste receptor (Homo sapiens, UniProt Q7RTX0+Q7RTX1); assay: in vitro cell-based assay having cells that express the T1R umami taste receptor (enhancement of MSG); conditions: compound at 3 μM
measure: MSG Enh. Ratio

These recorded examples may help you get a feel for the data.
{"compound": "CCOC(=O)CC[C@H](NC(=O)c1ccc2c(c1)OCO2)C(=O)OCC", "MSG Enh. Ratio": "7.5 @"}
{"compound": "CCOC(=O)[C@H](Cc1ccccc1)NC(=O)/C=C/c1ccc(OCC)cc1", "MSG Enh. Ratio": "2.0 @"}
{"compound": "CCOC(=O)[C@@H](CC(C)C)NC(=O)/C=C/C(C)C", "MSG Enh. Ratio": "8.96 @"}
{"compound": "COC(=O)[C@H](Cc1ccccc1)NC(=O)c1ccc(C)c(C)c1", "MSG Enh. Ratio": "4.6 @"}
{"compound": "CCOC(=O)[C@H](CC(C)C)NC(=O)c1ccc(C)c(C)c1 [Compound 116, Ethyl (3,4-dimethylbenzoyl)-L-leucinate]", "MSG Enh. Ratio": "3.7 @"}
{"compound": "CCOC(=O)[C@@H](NC(=O)c1ccc(C)c(C)c1)C(C)C [Compound 118, Ethyl (3,4-dimethylbenzoyl)-L-valinate]", "MSG Enh. Ratio": "7.0 @"}
{"compound": "COC(=O)[C@@H](NC(=O)c1ccc(C)c(C)c1)C(C)C [Compound 117, Methyl (3,4-dimethylbenzoyl)-L-valinate]", "MSG Enh. Ratio": "4.6 @"}
{"compound": "COC(=O)[C@H](CC(C)C)NC(=O)/C=C/c1ccc(OC)cc1", "MSG Enh. Ratio": "4.5 @"}
{"compound": "CCOC(=O)CC[C@H](NC(=O)/C=C/c1ccc(OC)cc1)C(=O)OCC", "MSG Enh. Ratio": "4.2 @"}
{"compound": "CCOC(=O)[C@H](CC(C)C)NC(=O)/C=C/C(C)C", "MSG Enh. Ratio": "4.2 @"}

Could you now consider this next compound?
So, CCOC(=O)CC[C@H](NC(=O)c1ccc(C)c(C)c1)C(=O)OCC ? Its MSG Enh. Ratio was 4.9 @

###

target: T1R umami taste receptor (Homo sapiens, UniProt Q7RTX0+Q7RTX1); test: in vitro cell-based assay having cells that express the T1R umami taste receptor (enhancement of MSG); conditions: cells expressing T1R umami taste receptor; read-out: EC50 for enhancement of MSG binding
Give measured EC50 for each item. Keep answers brief.
One number for each entry, in µM.

Here is how some molecules turned out for EC50.
{"molecule": "COC(=O)[C@@H](NC(=O)c1ccc(C)c(C)c1)C(C)C [Compound 117, Methyl (3,4-dimethylbenzoyl)-L-valinate]", "targetOrSystem": "T1R umami taste receptor (Homo sapiens, UniProt Q7RTX0+Q7RTX1)", "unitsLabel": "µM", "EC50": 11.1}
{"molecule": "CCOC(=O)CC[C@H](NC(=O)/C=C/c1ccccc1)C(=O)OCC [Compound 140, Diethyl cinnamoyl-L-glutamate]", "targetOrSystem": "T1R umami taste receptor (Homo sapiens, UniProt Q7RTX0+Q7RTX1)", "unitsLabel": "µM", "EC50": 12}
{"molecule": "CCOc1ccc(C(=O)N[C@H](CC(C)C)C(=O)OC)cc1 [Compound 109, Methyl (4-ethoxybenzoyl)-D-leucinate]", "targetOrSystem": "T1R umami taste receptor (Homo sapiens, UniProt Q7RTX0+Q7RTX1)", "unitsLabel": "µM", "EC50": 0.7}
{"molecule": "COC(=O)[C@H](Cc1ccccc1)NC(=O)c1ccc(OC)cc1", "targetOrSystem": "T1R umami taste receptor (Homo sapiens, UniProt Q7RTX0+Q7RTX1)", "unitsLabel": "µM", "EC50": 36}
{"molecule": "CCOC(=O)[C@@H](CC(C)C)NC(=O)c1ccc2c(c1)OCO2", "targetOrSystem": "T1R umami taste receptor (Homo sapiens, UniProt Q7RTX0+Q7RTX1)", "unitsLabel": "µM", "EC50": 0.5}

Please give EC50, item by item, for the list that follows.
1. CCC/C=C/C(=O)N[C@H](C(=O)OC)[C@@H](C)CC [Compound 174, Methyl ((E)-hex-2-enoyl)-L-isoleucinate]
2. COC(=O)[C@H](CC(C)C)NC(=O)/C=C/c1ccc(OC)cc1
3. CCOC(=O)[C@H](NC(=O)/C=C/c1ccc(OC)cc1)C(C)C
4. CCOC(=O)CC[C@H](NC(=O)c1ccc(C)c(C)c1)C(=O)OCC
5. COC(=O)[C@@H](CC(C)C)NC(=O)/C=C/c1ccc(OC)cc1
6. COC(=O)[C@@H](CC(C)C)NC(=O)c1ccc(C)c(C)c1 [Compound 114, Methyl (3,4-dimethylbenzoyl)-D-leucinate]
7. CCOC(=O)[C@@H](CC(C)C)NC(=O)/C=C/c1ccc(OC)cc1

A)
30
11
1
2
0.1
0.7
1

###

Molecular target: T1R umami taste receptor (Homo sapiens, UniProt Q7RTX0+Q7RTX1)
Experiment: in vitro cell-based assay having cells that express the T1R umami taste receptor (enhancement of MSG)
Details: cells expressing T1R umami taste receptor; read-out: EC50 for enhancement of MSG binding
Method: Each of Compounds 101-183 was synthesized according to one of the general procedures set forth above in Examples 1. Thereafter, the compounds were tested in an in vitro cell-based assay having cells that express the T1R umami taste receptor. Dose-binding curves were recorded and the EC50 was determined for enhancement of MSG binding. Table 2 sets forth the calculated EC50 values for certain tested compounds as well as the MSG enhancement ratio at a particular concentration.
measure: log10(EC50) (log10 of the value in µM)
Field: value | Transform: log10 | Quantity: EC50 | Unit: µM

Recorded results for 5 compounds are shown here.
{"compound": "CCOC(=O)CC[C@H](NC(=O)c1ccc2c(c1)OCO2)C(=O)OCC", "measured": 1.08}
{"compound": "CCOC(=O)[C@H](CC(C)C)NC(=O)/C=C/C(C)C", "measured": 1.11}
{"compound": "CCOC(=O)CC[C@H](NC(=O)c1ccc(C(C)C)cc1)C(=O)OCC [Compound 111, Diethyl (4-isopropylbenzoyl)-L-glutamate]", "measured": 1.41}
{"compound": "CCOC(=O)[C@@H](NC(=O)c1ccc(C)c(C)c1)C(C)C [Compound 118, Ethyl (3,4-dimethylbenzoyl)-L-valinate]", "measured": 0.68}
{"compound": "CCOC(=O)[C@@H](CC(C)C)NC(=O)c1ccc(C)c(C)c1 [Compound 115, Ethyl (3,4-dimethylbenzoyl)-D-leucinate]", "measured": -1.00}

Could I get log10(EC50) for every one of these entries?
1. CCOC(=O)[C@H](Cc1ccccc1)NC(=O)/C=C/c1ccc(OC)cc1
2. COC(=O)[C@H](Cc1ccccc1)NC(=O)/C=C/c1ccccc1OC

A)
1: 1.00; 2: 1.43

Entry CCOC(=O)CC[C@H](NC(=O)/C=C/c1ccc(OCC)cc1)C(=O)OCC ; assay system T1R umami taste receptor (Homo sapiens, UniProt Q7RTX0+Q7RTX1); log10(EC50) recorded at 0.60

###

For each entry below, report its log10 EC50 value.
target: T1R umami taste receptor (Homo sapiens, UniProt Q7RTX0+Q7RTX1); test: in vitro cell-based assay having cells that express the T1R umami taste receptor (enhancement of MSG); settings: cells expressing T1R umami taste receptor; read-out: EC50 for enhancement of MSG binding
Heads up, the numbers here are log10 of EC50 in µM units.

// worked examples, log10 EC50 included
{"compound": "CCOC(=O)[C@@H](NC(=O)/C=C/c1ccc(OC)cc1)C(C)C", "measure": "log10 EC50", "measured": 0.35}
{"compound": "CCOc1ccc(/C=C/C(=O)N[C@@H](Cc2ccccc2)C(=O)OC)cc1", "measure": "log10 EC50", "measured": 0.00}
{"compound": "CCOC(=O)[C@H](Cc1ccc(OC)cc1)NC(=O)c1ccc(C)c(C)c1", "measure": "log10 EC50", "measured": 1.08}
{"compound": "CCOC(=O)[C@@H](NC(=O)/C=C/c1ccccc1)C(C)C [Compound 136, Ethyl cinnamoyl-L-valinate]", "measure": "log10 EC50", "measured": 1.36}

Here's the next entry for you.
For CCOC(=O)[C@H](Cc1ccccc1)NC(=O)/C=C/c1ccc(OCC)cc1 the compound record lists log10 EC50 as 0.48
